The measurements presented in this section are drawn from PubChem BioAssay AID449762.

Experiment: M. tuberculosis growth inhibition, HTS (AID 449762);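 further: bacterial growth assessed after seven days of incubation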
Settings: M. tuberculosis H37Rv growth inhibition, 7H9 media; at 25 µM; hits give high values
The whole screen tested about 330,000 compounds, of which about 1,900 (0.58%) were called active. About 4% were inconclusive and are not listed. The list is a sample of the results. Measured potencies and affinities stand elsewhere.
Here, each record is paired with measured inhibition data.

MOLECULE | RESULT_UNITS | inhibition
CCOC(=O)C1CCN(CC(O)COc2ccc(C(C)=O)cc2)CC1 (stereo not given) | % | -0.99
CCOC(=O)C1CCN(CC(O)COc2ccc(C(=O)CC)cc2)CC1 (stereo not given) | % | -15.2
CCC(NC(=O)c1ccccc1NC(=O)c1ccco1)C(=O)NNC(=O)c1ccc(OC)cc1 (stereo not given) | % | -4.34
CCOc1ccccc1N1CCN(c2ncnc3scc(-c4ccc(OC)cc4)c23)CC1 | % | -0.51
COc1ccc(-c2csc3nc(-c4ccccc4F)oc(=O)c23)cc1 | % | -1.39
COc1ccc(-c2nc3scc(-c4ccc(OC)c(OC)c4)c3c(=O)o2)cc1 | % | 11.9
CCCCn1c(O)c(C(=O)/C=C/c2ccc3c(c2)OCO3)c(=O)[nH]c1=O | % | 1
Cn1nnnc1SCC(=O)Nc1nc2c(s1)CCCC2 | % | 2.88
CC(C)c1ccc(CNc2c([N+](=O)[O-])c(=O)oc3ccccc23)cc1 | % | 4.35
CCOC(=O)C(C)Sc1nc2c(c(-c3cccs3)c1C#N)CCC2 (stereo not given) | % | 57.8
